Molecular target: T1, VLP-hCLDN6 (human) (UniProt P56747)
T1 sequence: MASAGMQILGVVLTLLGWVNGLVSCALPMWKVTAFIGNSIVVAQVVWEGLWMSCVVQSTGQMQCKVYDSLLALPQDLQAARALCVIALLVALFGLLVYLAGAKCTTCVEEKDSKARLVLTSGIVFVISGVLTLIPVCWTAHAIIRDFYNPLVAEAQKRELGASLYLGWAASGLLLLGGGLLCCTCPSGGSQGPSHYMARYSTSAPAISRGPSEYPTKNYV
Assay: ELISA, coated VLP-hCLDN6, 10 ul antibody sample, HRP-Protein A; also: test concentration or dose not given here

binder	OD450
humanized antibody hAb-20 (antibody, V domains shown) VH: EVKLVESGGGLVQPGGSLRLSCAASGFTFNSYTMSWVRQTPAKRLEWVVTISSGGGRTYYPDSVKGRFTISRDNAKNTLYLQMSSLRAEDTAVYYCIRGDYRYDGFAYWGQGTLVTVSS VL: DIQMTQSPSSLSASVGDRVTITCRASENIDSYLAWYQQKPGKSPQLLVYASTLLQDGVPSRFSGSRSGTQFTLTISSLQPEDFATYYCQHYYSIPYTFGSGTKLEIK	1.38
humanized antibody hAb-9 (antibody, V domains shown) VH: EVKLVESGGGLVKPGGSLRLSCAASGFTFNSYTMSWVRQAPGKRLEWVVTISSGGGRTYYPDSVKGRFTISRDNAKNTLYLQMSSLRAEDTAVYYCIRGDYRYDGFAYWGQGTLVTVSS VL: DIQMTQSPSSLSASVGDRVTITCRASENIDSYLAWYQQKPGKSPQLLVYASTLLVDGVPSRFSGSRSGTQFSLTISSLQPEDVARYYCQHYYSIPYTFGSGTKLEIK	1.71
humanized antibody hAb-19 (antibody, V domains shown) VH: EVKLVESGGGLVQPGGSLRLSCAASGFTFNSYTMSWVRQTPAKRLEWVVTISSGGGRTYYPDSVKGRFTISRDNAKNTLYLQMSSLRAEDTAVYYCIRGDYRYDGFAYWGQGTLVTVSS VL: DIQMTQSPSSLSASVGDRVTITCRASENIDSYLAWYQQKPGKSPQLLVYASTLLQDGVPSRFSGSRSGTQFTLTISSLQPEDVARYYCQHYYSIPYTFGSGTKLEIK	1.62
humanized antibody hAb-8 (antibody, V domains shown) VH: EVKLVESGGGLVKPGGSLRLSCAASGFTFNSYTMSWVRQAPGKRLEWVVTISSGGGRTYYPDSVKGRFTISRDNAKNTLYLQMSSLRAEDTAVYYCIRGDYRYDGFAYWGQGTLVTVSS VL: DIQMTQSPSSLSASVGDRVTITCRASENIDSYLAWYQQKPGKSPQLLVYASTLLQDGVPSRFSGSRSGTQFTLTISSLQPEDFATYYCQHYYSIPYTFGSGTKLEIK	1.27
humanized antibody hAb-10 (antibody, V domains shown) VH: EVKLVESGGGLVKPGGSLRLSCAASGFTFNSYTMSWVRQTPAKRLEWVVTISSGGGRTYYPDSVKGRFTISRDNAKNTLYLQMSSLRAEDTAVYYCIRGDYRYDGFAYWGQGTLVTVSS VL: DIQMTQSPSSLSASVGDRVTITCRASENIDSYLAWYQQKPGKSPQLLVYASTLLQDGVPSRFSGSRSGTDFTLTISSLQPEDVATYYCQHYYSIPYTFGSGTKLEIK	1.18

Where do the numbers come from? From patent EP4707304A1.
